# System: ABUTH
# protocol: Post-emergence herbicidal action against ABUTH
# Type: in vivo, Abutilon theophrasti
# condition_info: Abutilon theophrasti, 504 h, dosage 80 g/ha, visual assessment about 3 weeks after treatment vs untreated controls
Each entry below lists one item and its recorded pest or weed control at 80 g/ha value.

smiles_data | pest or weed control at 80 g/ha, %
CCCn1nnnc1NC(=O)c1ccc(C(F)(F)F)c(C(N)=O)c1Cl | 100
CC(=O)NC(=O)c1c(C(F)(F)F)ccc(C(=O)Nc2nnc(C)o2)c1Cl | 100
CCn1nnnc1NC(=O)c1ccc(C(F)(F)F)c(C(=O)NC)c1Cl | 100
CCn1nnnc1NC(=O)c1ccc(C(F)(F)F)c(C(=O)NC)c1SC | 90
CCNC(=O)c1c(C(F)(F)F)ccc(C(=O)Nc2nnc(C)o2)c1Cl | 80
